- system: Autotaxin (Homo sapiens)
Listing of recorded IC50 by entry.

Past entries and their recorded results:
# item smiles, result
data = [
    ("Cc1cccc(C(=O)N(C)[C@@H](C(=O)N2CCC3(CC2)C(=O)N(C)CN3c2ccccc2)C(C)C)c1", "> 1 µM"),
    ("CN1C(=O)N(c2ccc3[nH]ncc3c2)C2(CCN(C(=O)C3(NC(=O)c4cc(C(F)(F)F)ccc4F)COC3)CC2)C1=O", "> 1 µM"),
    ("Cc1cccc(C(=O)N[C@@H](C(=O)N2CCC3(CC2)C(=O)N(C)CN3c2cccc(C#N)c2)C(C)C)c1F", "> 1 µM"),
    ("CC(C)[C@@H](NC(=O)c1cc(C(F)(F)F)ccc1F)C(=O)N1CCC2(CC1)C(=O)N(C)C(=O)N2c1ccc(OCCN(C)C)cc1", "> 1 µM"),
]

Lab note: next compound to report on.
[ask] // returns reported IC50 for input CC(C)[C@@H](NC(=O)c1ccc(C#N)c(Cl)c1)C(=O)N1CCC2(CC1)C(=O)N(C)CN2c1ccccc1
[reply] > 1 µM
